- System: Fibrinogen (Alexa647-labelled)
- Method: fibrinogen binders on compound microarrays, profiling panel, artefact control for SMM control-protein annotation, biochemical, small-molecule microarray, 635/667 nm fluorescence (AID 1131);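 also: z-score merges 667 nm fluorescence with per-spot signal-to-noise over triplicate slides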
- Conditions used: fibrinogen-A647 binding fluorescence, higher = more signal
Metric name: composite z-score
// no unit, no text: just the number

Report composite z-score from Fibrinogen (Alexa647-labelled) testing of O=C1NC(=O)C2C1C=CC(C(O)C=Cc1ccc([N+](=O)[O-])cc1)N2Nc1ccccn1 (stereo not drawn)
0.123

Next:
Report composite z-score from Fibrinogen (Alexa647-labelled) testing of "CCCCO[C@H]1C[C@H]2C(Br)=C[C@@]1(CO)C(=O)[C@]21CO1"
-0.46

Report composite z-score from Fibrinogen (Alexa647-labelled) testing of "CC(C)CN1C(=O)[C@@]2(Cc3ccccc31)c1ccccc1C(=O)N(C1CCCCC1)[C@H]2c1ccc(CO)cc1"
-1.04

Report composite z-score from Fibrinogen (Alexa647-labelled) testing of "COc1cc(CO)cc(I)c1O[C@H]1C=C(C(=O)NCCO)C[C@@H](N(CC2CCCCC2)C(=O)c2cc3ccccc3oc2=O)[C@@H]1O"
1.02

Report composite z-score from Fibrinogen (Alexa647-labelled) testing of "COC(=O)C[C@H]1O[C@]2(C(=O)N(C)c3ccccc32)[C@@H](C)[C@@H]1[Si](C)(C)c1ccc(OC)cc1"
0.728

Report composite z-score from Fibrinogen (Alexa647-labelled) testing of "CCCC=C(CCC)[C@@H](NC(=O)c1ccccc1)c1ccccc1"
-0.602

Report composite z-score from Fibrinogen (Alexa647-labelled) testing of "CO[C@H]1O[C@H](CO)[C@@H](OC(=O)Nc2ccccc2)[C@H](OC(=O)Nc2ccc3c(c2)OCO3)[C@@H]1OC(=O)Nc1ccc2c(c1)OCO2"
0.771

Report composite z-score from Fibrinogen (Alexa647-labelled) testing of "CCN1C(C)=C(C(=O)OC)[C@@H](c2ccccc2)N2C(=O)[C@](O)(C(=O)OC)[C@@H](c3ccccc3)C(C(=O)c3ccccc3)=C12"
0.983
